Please find below log10(IC50) data on Protein deacetylase HDAC6 (Homo sapiens, UniProt Q9UBN7) compiled from the literature.
Values reflect log10 of reported IC50 (µM).

Consider the reported log10(IC50) for these compounds:
COMPOUND | READOUT_TYPE | VALUE_REPORTED
O=C(/C=C/c1cccc2ccccc12)NO | log10(IC50) | 1.91
COc1ccc(/C=C2\SC(=O)N(CCNC(=O)Nc3c(C)n(C)n(-c4ccccc4)c3=O)C2=O)cc1 | log10(IC50) | -0.59
COc1cc2nc(-c3ccc(C)s3)cc(NCC3CCN(c4ncc(C(=O)NO)cn4)CC3)c2cc1OC | log10(IC50) | 0.10
Nc1ncc(-c2cn(CCCCCC(=O)NO)c(=O)c(N3CCOCC3)n2)cn1 | log10(IC50) | -0.96
O=C(NO)c1ccc(CN2C(=O)CNC(=O)[C@H]2Cc2ccccc2)cc1 | log10(IC50) | -0.77
O=C(/C=C/c1ccc(CN2CCN(C(=O)c3cc(Cc4n[nH]c(=O)c5ccccc45)ccc3F)CC2)cc1)NO | log10(IC50) | -1.99
CC(C)Oc1cccc(-c2ccc3c(NC(=O)c4ccc(C(=O)NO)cc4)n[nH]c3c2)c1 | log10(IC50) | -1.11
CC(=O)Nc1ccc(-c2nc(Nc3cccc(OCCCCCCC(=O)NO)c3)ncc2C)cc1 | log10(IC50) | -2.21
Cc1ccc(-c2cncc(/C=C/c3ccc(C(=O)NO)cc3)c2)c(F)c1 | log10(IC50) | -0.82
CC(=O)Nc1ccc(-c2nc(Nc3cccc(OCCCCCCCC(=O)NO)c3)ncc2C)cc1 | log10(IC50) | -2.01

Protein deacetylase HDAC6 (Homo sapiens, UniProt Q9UBN7) data for Nc1nc2ncc(CNc3ccc(C(=O)NCCCCCCCCC(=O)NO)cc3)nc2c(=O)[nH]1 ; its log10(IC50): -1.99

Protein deacetylase HDAC6 (Homo sapiens, UniProt Q9UBN7) data for CN(CCOc1ccc(C(=O)NO)cc1)c1nc(N)n2nc(-c3ccco3)nc2n1 ; its log10(IC50): -1.74

Protein deacetylase HDAC6 (Homo sapiens, UniProt Q9UBN7) data for O=C(CCC1=CCN(CCCc2ccc3ccccc3c2)C1=O)NO ; its log10(IC50): -0.10

Protein deacetylase HDAC6 (Homo sapiens, UniProt Q9UBN7) data for Cc1cc(-c2nnc(Sc3c(F)cc(C(=O)NO)cc3F)n2C)nn1C ; its log10(IC50): -2.22

Protein deacetylase HDAC6 (Homo sapiens, UniProt Q9UBN7) data for Cn1c(CNCc2ccccc2)nc2cc(C(=O)NO)ccc21 ; its log10(IC50): -1.84

Protein deacetylase HDAC6 (Homo sapiens, UniProt Q9UBN7) data for O=C(/C=C/c1ccc(CCNC(=O)c2cc(C(F)(F)F)ccc2Cl)cc1)NO ; its log10(IC50): -1.76

Protein deacetylase HDAC6 (Homo sapiens, UniProt Q9UBN7) data for O=C(NO)c1ccc(NC2CCN(CCc3ccccc3)C2=O)cc1 (stereo unspecified) ; its log10(IC50): -0.62

Protein deacetylase HDAC6 (Homo sapiens, UniProt Q9UBN7) data for CC(=O)Nc1ccc(-c2ccnc(Nc3cccc(NC(=O)CCCCC(=O)NO)c3)n2)cc1 ; its log10(IC50): -2.34

Protein deacetylase HDAC6 (Homo sapiens, UniProt Q9UBN7) data for CC(C)CCc1c(OCCCCCCC(=O)NO)ccc2ccc(=O)oc12 ; its log10(IC50): -1.82

Protein deacetylase HDAC6 (Homo sapiens, UniProt Q9UBN7) data for O=C(CCCCCn1cc(-c2ccc3ncnc(Nc4cccc(Cl)c4F)c3c2)nn1)NO ; its log10(IC50): -2.39

###

Please find below pIC50 data on UniProtKB Q9UBN7 compiled from the literature.
pIC50 here is simply -log10 of the concentration when that concentration is written in mol/L.

COMPOUND | pIC50
Nc1nc(NCCc2ccc(C(=O)NO)cc2)nc2nc(-c3ccco3)nn12 | 7.83
COc1cc2c(cc1OC)N(Cc1ccc(C(=O)NO)cc1)CCCC2 | 7.85
COc1cc2c(cc1OC)C(=O)C(CC1CCN(Cc3ccc(NCc4ccc(C(=O)NO)cc4)cc3)CC1)C2 (stereo not drawn) | 7.30
COc1ccccc1-c1cc(/C=C/c2ccc(C(=O)NO)cc2)ccn1 | 7.55

UniProtKB Q9UBN7 data for Cc1ccc(-c2cc(C(=O)NCCCCCCCC(=O)NO)nn2-c2ccc(S(N)(=O)=O)cc2)cc1 ; its pIC50: 6.74

###

TARGET_DESC: Protein deacetylase HDAC6 (Homo sapiens, UniProt Q9UBN7)
Sequence (Q9UBN7 whole entry): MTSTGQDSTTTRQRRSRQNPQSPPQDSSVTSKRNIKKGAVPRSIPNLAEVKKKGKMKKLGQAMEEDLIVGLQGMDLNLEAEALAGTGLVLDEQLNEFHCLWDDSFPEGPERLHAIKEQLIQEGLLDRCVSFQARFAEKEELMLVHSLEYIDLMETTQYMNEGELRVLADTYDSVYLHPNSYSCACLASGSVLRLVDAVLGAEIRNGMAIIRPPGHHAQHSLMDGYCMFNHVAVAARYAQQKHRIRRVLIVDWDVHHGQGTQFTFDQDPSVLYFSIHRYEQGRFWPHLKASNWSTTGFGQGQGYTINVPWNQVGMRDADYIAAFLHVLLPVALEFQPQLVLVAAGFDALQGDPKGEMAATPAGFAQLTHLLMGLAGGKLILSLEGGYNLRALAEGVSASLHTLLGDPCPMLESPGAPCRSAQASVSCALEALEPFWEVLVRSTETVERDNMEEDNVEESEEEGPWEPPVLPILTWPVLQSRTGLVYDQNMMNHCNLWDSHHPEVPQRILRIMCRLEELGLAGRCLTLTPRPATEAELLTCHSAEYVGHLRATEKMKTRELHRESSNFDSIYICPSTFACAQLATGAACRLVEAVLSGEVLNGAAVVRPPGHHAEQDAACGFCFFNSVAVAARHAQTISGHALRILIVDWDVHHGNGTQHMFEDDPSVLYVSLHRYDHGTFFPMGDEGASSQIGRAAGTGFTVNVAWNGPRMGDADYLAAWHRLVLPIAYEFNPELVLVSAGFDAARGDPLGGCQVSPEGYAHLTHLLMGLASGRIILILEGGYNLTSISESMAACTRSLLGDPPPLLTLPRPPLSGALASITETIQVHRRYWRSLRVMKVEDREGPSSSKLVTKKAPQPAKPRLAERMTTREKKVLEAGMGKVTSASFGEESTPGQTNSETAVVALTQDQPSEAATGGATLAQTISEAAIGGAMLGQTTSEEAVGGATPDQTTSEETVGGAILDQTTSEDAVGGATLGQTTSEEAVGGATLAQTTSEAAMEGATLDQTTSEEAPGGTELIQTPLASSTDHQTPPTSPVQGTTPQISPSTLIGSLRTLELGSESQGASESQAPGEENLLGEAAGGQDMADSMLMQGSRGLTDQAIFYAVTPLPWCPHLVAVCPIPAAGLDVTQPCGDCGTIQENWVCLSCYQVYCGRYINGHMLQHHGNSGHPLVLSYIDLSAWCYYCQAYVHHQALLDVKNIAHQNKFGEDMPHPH
Please find below IC50 data on Protein deacetylase HDAC6 (Homo sapiens, UniProt Q9UBN7) compiled from the literature.
State just the number; it will be interpreted in nM.

Consider the reported IC50 for these molecules:
COMPOUND_SMILES | IC50 [nM]
O=C1CCC[C@@H](C(=O)N[C@@H](CCCCCS)C(=O)Nc2ccccc2)N1 | 6
COc1ccc(CN2CC(=O)N(Cc3ccc(C(=O)NO)cc3)C2=O)cc1 | 28.2

Protein deacetylase HDAC6 (Homo sapiens, UniProt Q9UBN7) data for O=C(CCCCCCC(=O)NC[C@H]1O[C@@H]2O[C@H]3[C@H](O)[C@@H](O)[C@@H](O[C@H]4[C@H](O)[C@@H](O)[C@@H](O[C@H]5[C@H](O)[C@@H](O)[C@@H](O[C@H]6[C@H](O)[C@@H](O)[C@@H](O[C@H]7[C@H](O)[C@@H](O)[C@@H](O[C@H]8[C@H](O)[C@@H](O)[C@@H](O[C@H]1[C@H](O)[C@H]2O)O[C@@H]8CO)O[C@@H]7CO)O[C@@H]6CO)O[C@@H]5CO)O[C@@H]4CO)O[C@@H]3CO)NO ; its IC50: 120

###

Please find below IC50 data on Protein deacetylase HDAC6 (Homo sapiens, UniProt Q9UBN7) compiled from the literature.
TARGET_DESC: Protein deacetylase HDAC6 (Homo sapiens, UniProt Q9UBN7)
Sequence (Q9UBN7 whole entry): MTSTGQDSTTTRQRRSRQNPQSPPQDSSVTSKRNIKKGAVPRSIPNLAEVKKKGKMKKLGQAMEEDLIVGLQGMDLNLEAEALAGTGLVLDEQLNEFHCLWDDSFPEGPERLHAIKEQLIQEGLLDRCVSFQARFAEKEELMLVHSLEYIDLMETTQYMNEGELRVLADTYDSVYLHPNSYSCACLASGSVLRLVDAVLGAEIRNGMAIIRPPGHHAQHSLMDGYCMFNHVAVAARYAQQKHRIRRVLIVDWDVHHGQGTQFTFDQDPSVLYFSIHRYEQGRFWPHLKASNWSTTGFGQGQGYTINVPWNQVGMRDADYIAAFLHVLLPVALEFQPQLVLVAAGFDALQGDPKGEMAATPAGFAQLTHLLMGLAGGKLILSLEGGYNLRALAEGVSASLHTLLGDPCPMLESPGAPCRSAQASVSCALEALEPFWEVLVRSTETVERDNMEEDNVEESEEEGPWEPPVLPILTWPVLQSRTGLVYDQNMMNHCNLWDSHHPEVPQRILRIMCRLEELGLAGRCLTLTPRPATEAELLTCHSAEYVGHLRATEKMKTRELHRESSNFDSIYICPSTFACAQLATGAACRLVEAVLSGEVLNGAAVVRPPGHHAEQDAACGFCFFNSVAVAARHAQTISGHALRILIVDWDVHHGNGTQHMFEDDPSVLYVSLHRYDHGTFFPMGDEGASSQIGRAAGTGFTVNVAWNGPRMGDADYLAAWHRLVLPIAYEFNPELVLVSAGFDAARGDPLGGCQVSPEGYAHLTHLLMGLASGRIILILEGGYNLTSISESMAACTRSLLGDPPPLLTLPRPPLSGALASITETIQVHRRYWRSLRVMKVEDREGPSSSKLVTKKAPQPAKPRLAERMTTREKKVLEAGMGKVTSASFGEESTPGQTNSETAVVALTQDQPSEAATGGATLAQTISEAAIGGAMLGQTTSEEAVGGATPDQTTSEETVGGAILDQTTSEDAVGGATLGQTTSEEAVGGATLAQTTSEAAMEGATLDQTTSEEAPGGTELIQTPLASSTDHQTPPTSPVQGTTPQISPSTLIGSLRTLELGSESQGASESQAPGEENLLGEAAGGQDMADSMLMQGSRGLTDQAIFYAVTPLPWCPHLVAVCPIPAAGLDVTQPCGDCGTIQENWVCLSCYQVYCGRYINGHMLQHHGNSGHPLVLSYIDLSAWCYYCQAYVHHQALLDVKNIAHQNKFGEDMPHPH
State just the number; it will be interpreted in nM.

Consider the reported IC50 for these molecules:
MOLECULE | DISPLAY_UNIT | IC50
COc1ccc2nc3cc(Cl)ccc3c(Nc3ccc(CCC(=O)NO)cc3)c2c1 | nM | 80.8
COc1ccc(CN2C(=O)N(Cc3ccc(C(=O)NO)cc3)C(=O)C2Cc2ccccc2)cc1 (racemic) | nM | 102

Please look at the following molecule next.
For reference, reported IC50 for O=C(NO)c1coc(-c2ccc(-c3ccccc3)cc2)n1 stands at 89
